Origin of measurements: ChEMBL document CHEMBL5370528

- measuredOn: Mitogen-activated protein kinase 10 (Homo sapiens)
- assay: Inhibition of N-terminal GST-tagged recombinant full length human JNK3 expressed in baculovirus infected Sf9 cells using IPTTPITTTYFFFKKK as substrate at 0.1 uM incubated for 60 mins in the presence of ATP by ADP-Glo reagent based luminescence assay relative to control
Output: class label from inhibition. Mapping: 1: < 40%; 2: ≥ 40% and < 50%; 3: ≥ 50%

structureSmiles: CC(=O)Oc1ccc(Nc2nc(NCC(C)(C)C)ncc2C(N)=O)cc1
classLabel: 1

structureSmiles: CC(C)(C)CNc1ncc(C(N)=O)c(Nc2ccc(NC(N)=O)c(NC(N)=O)c2)n1
classLabel: 1

structureSmiles: CC(=O)Nc1ccc(Nc2nc(NCC(C)(C)C)ncc2C(N)=O)cc1
classLabel: 2

structureSmiles: CC(C)(C)CNc1ncc(F)c(Nc2ccccc2C(N)=O)n1
classLabel: 2

structureSmiles: CC(C)(C)CNc1ncc(Br)c(Nc2ccccc2C(N)=O)n1
classLabel: 3

structureSmiles: CC(C)(C)CNc1ncc(C(N)=O)c(Nc2ccccc2)n1
classLabel: 1

structureSmiles: CC(C)(C)CNc1ncc(C(N)=O)c(Nc2ccc(NC(N)=O)cc2)n1
classLabel: 1

structureSmiles: CC(C)(C)CNc1ncc(Cl)c(Nc2ccccc2C(N)=O)n1
classLabel: 3

structureSmiles: COc1cc(Nc2nc(NCC(C)(C)C)ncc2C(N)=O)ccc1O
classLabel: 1

* * *

The entries below are paired with their reported IC50.
- measuredOn: Mitogen-activated protein kinase 8 (Homo sapiens)
- Sequence (P45983 whole entry): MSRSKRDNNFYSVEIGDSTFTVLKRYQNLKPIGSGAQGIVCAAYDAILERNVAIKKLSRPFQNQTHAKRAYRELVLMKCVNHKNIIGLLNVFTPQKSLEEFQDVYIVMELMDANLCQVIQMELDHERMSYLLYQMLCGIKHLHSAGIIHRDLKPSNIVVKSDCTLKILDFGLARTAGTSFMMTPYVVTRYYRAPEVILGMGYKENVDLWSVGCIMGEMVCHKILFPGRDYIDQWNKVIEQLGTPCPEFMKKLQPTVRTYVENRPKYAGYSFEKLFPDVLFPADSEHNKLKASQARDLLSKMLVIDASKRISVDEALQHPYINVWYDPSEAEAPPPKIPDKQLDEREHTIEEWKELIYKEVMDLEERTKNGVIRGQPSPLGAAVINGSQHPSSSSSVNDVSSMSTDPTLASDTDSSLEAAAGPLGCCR
- assay: Inhibition of N-terminal GST-tagged recombinant full length human JNK1 expressed in baculovirus infected Sf9 insect cells using IPTTPITTTYFFFKKK as substrate incubated for 60 mins in the presence of ATP by ADP-Glo reagent based luminescence assay

structureSmiles: CC(C)(C)CNc1ncc(Cl)c(Nc2ccccc2C(N)=O)n1
unitAbbrev: µM
IC50: 0.0501
//
structureSmiles: CC(C)(C)CNc1ncc(F)c(Nc2ccccc2C(N)=O)n1
unitAbbrev: µM
IC50: 0.222
//
structureSmiles: CC(C)(C)CNc1ncc(C(N)=O)c(Nc2ccc(N)cc2)n1
unitAbbrev: µM
IC50: 0.344
//
structureSmiles: CC(C)(C)CNc1ncc(C(N)=O)c(Nc2ccc(NC(N)=O)c(NC(N)=O)c2)n1
unitAbbrev: µM
IC50: 0.231
//
structureSmiles: CC(C)(C)CNc1ncc(C(N)=O)c(Nc2ccc(N)c(N)c2)n1
unitAbbrev: µM
IC50: 0.208
//
structureSmiles: CC(=O)Nc1ccc(Nc2nc(NCC(C)(C)C)ncc2C(N)=O)cc1
unitAbbrev: µM
IC50: 0.0877
//
structureSmiles: CC(=O)Oc1ccc(Nc2nc(NCC(C)(C)C)ncc2C(N)=O)cc1
unitAbbrev: µM
IC50: 0.261
//
structureSmiles: CC(C)(C)CNc1ncc(C(N)=O)c(Nc2ccccc2)n1
unitAbbrev: µM
IC50: 0.34
//
structureSmiles: COc1cc(Nc2nc(NCC(C)(C)C)ncc2C(N)=O)ccc1O
unitAbbrev: µM
IC50: 0.098
//
structureSmiles: CC(C)(C)CNc1ncc(C(N)=O)c(Nc2ccc(NC(N)=O)cc2)n1
unitAbbrev: µM
IC50: 0.243
//
structureSmiles: CC(C)(C)CNc1ncc(Br)c(Nc2ccccc2C(N)=O)n1
unitAbbrev: µM
IC50: 0.0335

* * *

- measuredOn: Mitogen-activated protein kinase 9 (Homo sapiens, UniProt P45984)
- assay: Inhibition of N-terminal GST-tagged recombinant full length human JNK2 expressed in baculovirus infected Sf9 cells using IPTTPITTTYFFFKKK as substrate at 1 uM incubated for 60 mins in the presence of ATP by ADP-Glo reagent based luminescence assay relative to control
- Sequence (P45984 whole entry, looked up): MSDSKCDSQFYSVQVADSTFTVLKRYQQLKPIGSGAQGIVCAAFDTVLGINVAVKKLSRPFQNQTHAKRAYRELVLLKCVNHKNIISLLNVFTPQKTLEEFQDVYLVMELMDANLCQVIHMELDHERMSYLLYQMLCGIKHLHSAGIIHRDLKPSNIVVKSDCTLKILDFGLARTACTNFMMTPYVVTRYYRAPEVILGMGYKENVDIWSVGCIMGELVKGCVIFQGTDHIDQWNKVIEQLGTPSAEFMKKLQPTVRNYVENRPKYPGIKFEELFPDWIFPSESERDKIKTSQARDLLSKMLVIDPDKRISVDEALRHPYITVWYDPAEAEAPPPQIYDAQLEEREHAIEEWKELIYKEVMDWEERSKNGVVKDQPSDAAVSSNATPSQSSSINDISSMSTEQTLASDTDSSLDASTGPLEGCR
The entries below are paired with their reported inhibition.
assayMetric: inhibition (%)

structureSmiles: CC(C)(C)CNc1ncc(C(N)=O)c(Nc2ccc(N)cc2)n1
measuredOn: Mitogen-activated protein kinase 9 (Homo sapiens, UniProt P45984)
recordedValue: 78
//
structureSmiles: CC(C)(C)CNc1ncc(C(N)=O)c(Nc2ccc(NC(N)=O)cc2)n1
measuredOn: Mitogen-activated protein kinase 9 (Homo sapiens, UniProt P45984)
recordedValue: 62.5
//
structureSmiles: COc1cc(Nc2nc(NCC(C)(C)C)ncc2C(N)=O)ccc1O
measuredOn: Mitogen-activated protein kinase 9 (Homo sapiens, UniProt P45984)
recordedValue: 60.7
//
structureSmiles: CC(C)(C)CNc1ncc(C(N)=O)c(Nc2ccccc2)n1
measuredOn: Mitogen-activated protein kinase 9 (Homo sapiens, UniProt P45984)
recordedValue: 24.5
//
structureSmiles: CC(=O)Oc1ccc(Nc2nc(NCC(C)(C)C)ncc2C(N)=O)cc1
measuredOn: Mitogen-activated protein kinase 9 (Homo sapiens, UniProt P45984)
recordedValue: 52.5
//
structureSmiles: CC(C)(C)CNc1ncc(F)c(Nc2ccccc2C(N)=O)n1
measuredOn: Mitogen-activated protein kinase 9 (Homo sapiens, UniProt P45984)
recordedValue: 74.2
//
structureSmiles: CC(=O)Nc1ccc(Nc2nc(NCC(C)(C)C)ncc2C(N)=O)cc1
measuredOn: Mitogen-activated protein kinase 9 (Homo sapiens, UniProt P45984)
recordedValue: 71.3
//
structureSmiles: CC(C)(C)CNc1ncc(Cl)c(Nc2ccccc2C(N)=O)n1
measuredOn: Mitogen-activated protein kinase 9 (Homo sapiens, UniProt P45984)
recordedValue: 94.8
//
structureSmiles: CC(C)(C)CNc1ncc(Br)c(Nc2ccccc2C(N)=O)n1
measuredOn: Mitogen-activated protein kinase 9 (Homo sapiens, UniProt P45984)
recordedValue: 101
//
structureSmiles: CC(C)(C)CNc1ncc(C(N)=O)c(Nc2ccc(NC(N)=O)c(NC(N)=O)c2)n1
measuredOn: Mitogen-activated protein kinase 9 (Homo sapiens, UniProt P45984)
recordedValue: 53.6
//
structureSmiles: CC(C)(C)CNc1ncc(C(N)=O)c(Nc2ccc(N)c(N)c2)n1
measuredOn: Mitogen-activated protein kinase 9 (Homo sapiens, UniProt P45984)
recordedValue: 35.8

* * *

- assay: Half-life in Sprague-Dawley rat at 75 mg/kg, po by HPLC-UV analysis
- Format: ADME, organism-based
- cond: in vivo
assayMetric: half-life (h)

structureSmiles: CC(C)(C)CNc1ncc(Br)c(Nc2ccccc2C(N)=O)n1
recordedValue: 4.22

* * *

- measuredOn: Mitogen-activated protein kinase 9 (Homo sapiens)
- assay: Inhibition of N-terminal GST-tagged recombinant full length human JNK2 expressed in baculovirus infected Sf9 cells using IPTTPITTTYFFFKKK as substrate incubated for 60 mins in the presence of ATP by ADP-Glo reagent based luminescence assay
- Sequence (P45984 whole entry): as the sequence (P45984 whole entry, looked up) above
pIC50: −log10 of the molar value.
assayMetric: pIC50

structureSmiles: CC(C)(C)CNc1ncc(Br)c(Nc2ccccc2C(N)=O)n1
recordedValue: 6.95

* * *

- assay: Clearance in Sprague-Dawley rat at 5 mg/kg, iv by HPLC-UV analysis
- Type: ADME, organism-based
- cond: in vivo

structureSmiles: CC(C)(C)CNc1ncc(Br)c(Nc2ccccc2C(N)=O)n1
clearance (mL/min/kg): 131

* * *

- assay: Clearance in Sprague-Dawley rat at 75 mg/kg, po by HPLC-UV analysis
- Assay type: ADME, organism-based
- cond: in vivo
assayMetric: CL/F

structureSmiles: CC(C)(C)CNc1ncc(Br)c(Nc2ccccc2C(N)=O)n1
recordedValue: 51.6 L/h/kg

* * *

- assay: Cmax in Sprague-Dawley rat at 75 mg/kg, po by HPLC-UV analysis
- Type: ADME, organism-based
- Parameters: dose 75 mg/kg, route po
- cond: in vivo
assayMetric: Cmax

structureSmiles: CC(C)(C)CNc1ncc(Br)c(Nc2ccccc2C(N)=O)n1
recordedValue: 488 ng/mL

* * *

The entries below are paired with their reported inhibition.
- measuredOn: Mitogen-activated protein kinase 10 (Homo sapiens, UniProt P53779)
- Sequence (P53779 whole entry): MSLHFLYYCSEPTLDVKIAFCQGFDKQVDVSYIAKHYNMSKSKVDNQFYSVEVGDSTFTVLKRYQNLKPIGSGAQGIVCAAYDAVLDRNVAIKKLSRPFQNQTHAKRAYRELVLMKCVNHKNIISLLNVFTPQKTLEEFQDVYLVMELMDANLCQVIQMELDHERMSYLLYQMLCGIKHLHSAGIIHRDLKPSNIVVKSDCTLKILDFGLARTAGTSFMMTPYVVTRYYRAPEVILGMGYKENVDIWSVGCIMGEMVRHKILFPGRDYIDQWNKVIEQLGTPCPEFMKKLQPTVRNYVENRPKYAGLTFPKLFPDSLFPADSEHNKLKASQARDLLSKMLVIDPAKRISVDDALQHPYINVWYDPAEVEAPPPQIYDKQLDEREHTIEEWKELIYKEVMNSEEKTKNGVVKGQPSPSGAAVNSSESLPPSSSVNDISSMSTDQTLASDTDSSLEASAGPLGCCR
- assay: Inhibition of N-terminal GST-tagged recombinant full length human JNK3 expressed in baculovirus infected Sf9 cells using IPTTPITTTYFFFKKK as substrate at 1 uM incubated for 60 mins in the presence of ATP by ADP-Glo reagent based luminescence assay relative to control

structureSmiles: CC(C)(C)CNc1ncc(C(N)=O)c(Nc2ccc(N)cc2)n1
inhibition: 87.5%
//
structureSmiles: CC(=O)Oc1ccc(Nc2nc(NCC(C)(C)C)ncc2C(N)=O)cc1
inhibition: 71.8%
//
structureSmiles: CC(C)(C)CNc1ncc(F)c(Nc2ccccc2C(N)=O)n1
inhibition: 87.4%
//
structureSmiles: CC(C)(C)CNc1ncc(C(N)=O)c(Nc2ccccc2)n1
inhibition: 61.1%
//
structureSmiles: CC(C)(C)CNc1ncc(C(N)=O)c(Nc2ccc(NC(N)=O)cc2)n1
inhibition: 81.6%
//
structureSmiles: COc1cc(Nc2nc(NCC(C)(C)C)ncc2C(N)=O)ccc1O
inhibition: 70.2%
//
structureSmiles: CC(=O)Nc1ccc(Nc2nc(NCC(C)(C)C)ncc2C(N)=O)cc1
inhibition: 87.9%
//
structureSmiles: CC(C)(C)CNc1ncc(Cl)c(Nc2ccccc2C(N)=O)n1
inhibition: 95.9%
//
structureSmiles: CC(C)(C)CNc1ncc(Br)c(Nc2ccccc2C(N)=O)n1
inhibition: 99.6%
//
structureSmiles: CC(C)(C)CNc1ncc(C(N)=O)c(Nc2ccc(NC(N)=O)c(NC(N)=O)c2)n1
inhibition: 60.4%
//
structureSmiles: CC(C)(C)CNc1ncc(C(N)=O)c(Nc2ccc(N)c(N)c2)n1
inhibition: 61.2%
